Population Hoechst High Intensity Objects (%) for assorted compounds
System: U2OS
Test: Multiplex assay against U2OS
Format: toxicity, cell-based
Condition Set: human, 12 h, 1 µM, compound concentration 1 uM, replicate 1
Report as: number unit

Compound	Measured On	Recorded Measurement
CN1CCN(c2cc(-c3ccccc3)nc(N)n2)CC1	U2OS	2%
Cc1noc(-c2ccc(-c3ccc(CC(=O)O)cc3)cc2)c1NC(=O)O[C@H](C)c1ccccc1Cl	U2OS	4%
CC(C)c1noc(N2CCC(COc3ccc(-c4ccc(S(C)(=O)=O)cc4)nc3)CC2)n1 [GSK-1292263]	U2OS	2%
Br.CS(=O)(=O)Nc1c(O)ccc2c1CCCC2C1=NCCN1 (centres undefined)	U2OS	2%
Cc1onc(-c2ccccc2Cl)c1C(=O)N(C)c1ccc(Cl)cc1	U2OS	0%

As a next step, examine the compound that follows.
Entry N#Cc1c(Oc2cccc(OS(=O)(=O)CCCC(F)(F)F)c2)cccc1C(F)(F)F : reported Population Hoechst High Intensity Objects (%) = ?
3%

----------
System: U2OS
Test: Multiplex assay against U2OS
Format: toxicity, cell-based
Condition Set: human, 24 h, 1 µM, compound concentration 1 uM, replicate 1
Entries whose Total Cell Count is below 300 take rule met; entries at or above 300 take rule not met.

Input Smiles	Class Assignment
CC(=O)Nc1cccc2c1c(Sc1ccc(Cl)cc1)c(C)n2CC(=O)O	rule met
Cc1cnc(-c2cc(N3CCN(C(=O)CCS(C)(=O)=O)CC3)ncc2Cl)c(C)c1	rule met
O=C(CCCc1ccccc1)Nc1nc2ccccc2c(=O)s1	rule not met

Quick check: does CN(C)C(=O)Cn1cc(-c2ccc(-c3cncc4ccccc34)cc2)cn1 have Total Cell Count under 300?
rule met

Ok, now CN[C@@H](C)C(=O)N[C@H](C(=O)N1CCC[C@H]1C(=O)Nc1snnc1-c1ccccc1)C1CCCCC1
rule met

Same question, O=C1[C@H](Cc2ccc(O)cc2)N2C(=O)CCN(C(=O)NCc3ccccc3)[C@H]2CN1Cc1cccc2ccccc12 this time
rule met

----------
Test system: HEK-293T
Test: Multiplex assay against HEK293T
Format: toxicity, cell-based
Condition Set: human, 48 h, 1 µM, compound concentration 1 uM, replicate 2
Reported Population Pyknosed Nuclei (%) values are given for each entry in this list.
Report the value in % with no unit label.

Consider the following illustrative entries.
Molecule	Recorded Measurement
O=C(CCCc1ccccc1)Nc1nc2ccccc2c(=O)s1	8
CCCCC1=NC2(CCCC2)C(=O)N1Cc1ccc(-c2ccccc2-c2nnn[nH]2)cc1 [IRBESARTAN]	6
CN(C)C(=O)Cn1cc(-c2ccc(-c3cncc4ccccc34)cc2)cn1	5

For the molecule CC[C@@H](C)Nc1nc(C)nc2c(-c3ccc(OC)nc3C)c(C)nn12 [PEXACERFONT] , what Population Pyknosed Nuclei (%) is on record?
9

Also check COc1cccc2c1c(NS(=O)(=O)c1ccc(Cl)s1)nn2Cc1cccc(CNC(=O)C(C)(C)O)c1
4

----------
System: HEK-293T
Test: Multiplex assay against HEK293T
Format: toxicity, cell-based
Condition Set: human, 24 h, 10 µM, compound concentration 10 uM, replicate 2
Test Readout: Population Healthy Nuclei (%)
# output: bare number, implied unit %

// known answers, use as guide
Compound	Measured On	Result Units	Population Healthy Nuclei (%)
COc1cccc2c1c(NS(=O)(=O)c1ccc(Cl)s1)nn2Cc1cccc(CNC(=O)C(C)(C)O)c1	HEK-293T	%	77
N#Cc1cc(F)cc(-c2nc(-c3ccc(F)cn3)no2)c1	HEK-293T	%	79
CCCCCC(O)/C=C/[C@H]1C(=O)CC(O)C1C/C=C\CCCC(=O)O (some centres undefined)	HEK-293T	%	77

Okay, now this compound:
Look up Population Healthy Nuclei (%) with HEK-293T for this compound: O=C1[C@H](Cc2ccc(O)cc2)N2C(=O)CCN(C(=O)NCc3ccccc3)[C@H]2CN1Cc1cccc2ccccc12
77

----------
System: U2OS
Test: Multiplex assay against U2OS
Type: toxicity, cell-based
Condition Set: human, 12 h, 1 µM, compound concentration 1 uM, replicate 1
Test Readout: Population Pyknosed Nuclei (%)
# unit: % | format: bare number

# example entries with known answers
Compound	Test Readout	Result Units	Recorded Measurement
Cc1onc(-c2ccccc2Cl)c1C(=O)N(C)c1ccc(Cl)cc1	Population Pyknosed Nuclei (%)	%	6
CC(C)COc1ccc(CNC(=O)N(Cc2ccc(F)cc2)C2CCN(C)CC2)cc1	Population Pyknosed Nuclei (%)	%	9
CCc1cc2cc(NS(=O)(=O)c3ccc(C#N)cc3)ccc2n(CC)c1=O	Population Pyknosed Nuclei (%)	%	9
O=C(CCCc1ccccc1)Nc1nc2ccccc2c(=O)s1	Population Pyknosed Nuclei (%)	%	9
Cc1cccc(NC(=O)CN2CCC(c3ccccn3)CC2)c1.Cl.Cl	Population Pyknosed Nuclei (%)	%	5

Using the record for COC[C@@H](c1ccc(C(F)(F)F)cc1)N1CCN(C2(C)CCN(C(=O)c3c(C)ncnc3C)CC2)C[C@@H]1C.O=C(O)/C=C\C(=O)O [VICRIVIROC MALEATE] , report its Population Pyknosed Nuclei (%).
11

Similarly, N#Cc1c(Oc2cccc(OS(=O)(=O)CCCC(F)(F)F)c2)cccc1C(F)(F)F ?
10

Let us now turn to Cc1noc(-c2ccc(-c3ccc(CC(=O)O)cc3)cc2)c1NC(=O)O[C@H](C)c1ccccc1Cl
9

Can you handle COc1cccc2c1c(NS(=O)(=O)c1ccc(Cl)s1)nn2Cc1cccc(CNC(=O)C(C)(C)O)c1 next?
9

----------
Tested on: U2OS
Test: Multiplex assay against U2OS
Assay type: toxicity, cell-based
Condition Set: human, 12 h, 10 µM, compound concentration 10 uM, replicate 1
Test Readout: Population Mitochondria Different-Phenotype (%)
Lab book: enter the figure in %, no units written.

Compound	Result Units	Recorded Measurement
CC(C)(C)c1cc(NC(=O)Nc2ccc(-c3cn4c(n3)sc3cc(OCCN5CCOCC5)ccc34)cc2)no1 [QUIZARTINIB]	%	26

Any idea what Population Mitochondria Different-Phenotype (%) was measured for CC(C)COc1ccc(CNC(=O)N(Cc2ccc(F)cc2)C2CCN(C)CC2)cc1 [PIMAVANSERIN] ?
73

Next compound: N#Cc1c(Oc2cccc(OS(=O)(=O)CCCC(F)(F)F)c2)cccc1C(F)(F)F
8

Request: COc1ccccc1N1CCN(C[C@@H](C(=O)NC(C)(C)C)c2ccccc2)CC1.Cl.Cl
41

----------
Tested on: Fibroblast
Test: Multiplex assay against human fibroblast
Format: toxicity, cell-based
Condition Set: 24 h, 10 µM, compound concentration 10 uM, replicate 1
Threshold 50%: Population Mitotic Cells (%) strictly smaller gives Yes, otherwise No.

Below are worked cases with known answers.
Compound	Measured On	Class Assignment
CC(=O)Nc1cccc2c1c(Sc1ccc(Cl)cc1)c(C)n2CC(=O)O [AZD1981]	Fibroblast	No
Cl.N=C(N)NC(=O)Cc1c(Cl)cccc1Cl [GUANFACINE HYDROCHLORIDE]	Fibroblast	Yes
O=C1[C@H](Cc2ccc(O)cc2)N2C(=O)CCN(C(=O)NCc3ccccc3)[C@H]2CN1Cc1cccc2ccccc12	Fibroblast	No
O=C(CCCc1ccccc1)Nc1nc2ccccc2c(=O)s1	Fibroblast	No
NCCc1cn(S(=O)(=O)c2c(Cl)nc3sccn23)c2ccccc12.O=C(O)C(=O)O	Fibroblast	Yes
Cc1c(CC(=O)O)c2cccnc2n1Cc1ccc(S(C)(=O)=O)cc1C(F)(F)F [FEVIPIPRANT]	Fibroblast	Yes
CC(C)c1noc(N2CCC(COc3ccc(-c4ccc(S(C)(=O)=O)cc4)nc3)CC2)n1 [GSK-1292263]	Fibroblast	Yes
CCCCC1=NC2(CCCC2)C(=O)N1Cc1ccc(-c2ccccc2-c2nnn[nH]2)cc1 [IRBESARTAN]	Fibroblast	Yes

Record CCCCCC(O)/C=C/[C@H]1C(=O)CC(O)C1C/C=C\CCCC(=O)O (stereo partly specified) : is its Population Mitotic Cells (%) strictly below 50%?
Yes

Field entry: CN1CCN(c2cc(-c3ccccc3)nc(N)n2)CC1
No

----------
Each record here notes measured Population Mitotic Cells (%).
System: Fibroblast
Test: Multiplex assay against human fibroblast
Format: toxicity, cell-based
Condition Set: 24 h, 10 µM, compound concentration 10 uM, replicate 1
Dear colleague, please return just the value in %, with no unit written.

The examples below pair each entry with its known result.
Input Smiles	Result Units	Population Mitotic Cells (%)
Cc1onc(-c2ccccc2Cl)c1C(=O)N(C)c1ccc(Cl)cc1	%	80
N#Cc1cc(F)cc(-c2nc(-c3ccc(F)cn3)no2)c1	%	29
CN[C@@H](C)C(=O)N[C@H](C(=O)N1CCC[C@H]1C(=O)Nc1snnc1-c1ccccc1)C1CCCCC1	%	32
CC(C)(C)c1cc(NC(=O)Nc2ccc(-c3cn4c(n3)sc3cc(OCCN5CCOCC5)ccc34)cc2)no1	%	25

With those in mind, consider the next compound.
Requested field: Population Mitotic Cells (%). Item: CCc1cc2cc(NS(=O)(=O)c3ccc(C#N)cc3)ccc2n(CC)c1=O
50

Origin of measurements: ChEMBL document CHEMBL5058577
